# assayedSystem: T1, Full-length human TIGIT on CHO-K1 cells (CHO-K1 human TIGIT) (human, UniProt Q495A1 22-244)
# T1 construct: NCBI XP_024309156.1; the entry includes the signal peptide (limits not recoverable); The strain (high, medium, low) is named under assay; also called high expression strain 1D2; medium expression strain 2D10
# T1 sequence: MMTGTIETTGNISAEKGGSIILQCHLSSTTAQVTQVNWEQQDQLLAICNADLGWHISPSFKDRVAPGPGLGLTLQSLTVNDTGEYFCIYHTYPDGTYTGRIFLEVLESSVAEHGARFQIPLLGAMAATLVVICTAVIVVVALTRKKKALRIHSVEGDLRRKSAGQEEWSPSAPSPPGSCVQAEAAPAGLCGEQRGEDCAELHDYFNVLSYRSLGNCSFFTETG
# methodNotes: cell binding, CHO-K1 human TIGIT high expression strain
measuredQuantity: EC50 (pM)
I only need the number, in pM, no unit after it.

Answered examples (2):
TIGIT-002-H4L2 (antibody, V domains shown, Humanized anti-TIGIT antibody) VH: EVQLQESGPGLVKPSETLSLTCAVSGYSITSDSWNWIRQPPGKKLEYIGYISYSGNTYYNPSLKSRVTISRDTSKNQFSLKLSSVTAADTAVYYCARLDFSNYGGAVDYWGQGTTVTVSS VL: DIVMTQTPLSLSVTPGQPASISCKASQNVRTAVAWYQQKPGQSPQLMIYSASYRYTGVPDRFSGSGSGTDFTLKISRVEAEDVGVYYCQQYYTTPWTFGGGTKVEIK: 29.4
TIGIT-006-H5L3 (antibody, V domains shown, Humanized anti-TIGIT antibody) VH: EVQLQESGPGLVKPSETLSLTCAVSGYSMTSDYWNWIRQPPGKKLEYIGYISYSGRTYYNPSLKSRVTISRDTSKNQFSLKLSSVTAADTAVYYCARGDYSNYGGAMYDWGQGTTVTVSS VL: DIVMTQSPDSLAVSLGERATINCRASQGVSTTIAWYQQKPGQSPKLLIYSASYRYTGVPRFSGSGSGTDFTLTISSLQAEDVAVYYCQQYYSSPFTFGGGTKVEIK: 22

Turning now to a further binder:
## Input Give its EC50 value. Item: TIGIT-006-H1L3 (antibody, V domains shown, Humanized anti-TIGIT antibody) VH: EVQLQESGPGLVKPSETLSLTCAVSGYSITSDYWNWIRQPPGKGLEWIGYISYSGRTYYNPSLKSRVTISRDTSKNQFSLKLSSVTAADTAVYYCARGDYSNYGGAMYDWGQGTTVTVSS VL: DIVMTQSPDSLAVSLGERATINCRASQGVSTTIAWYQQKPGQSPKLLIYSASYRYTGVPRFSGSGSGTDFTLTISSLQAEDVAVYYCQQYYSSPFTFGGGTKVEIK
## Output 59.6

This collection of values is drawn from patent US20240343803A1.
